# Test system: Aerobactin synthetase IucA (Klebsiella pneumoniae, hypervirulent)
# PROTOCOL TEXT: IucA enzyme inhibition, biochemical, LOPAC library, absorbance readout (AID 1346212);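 also: 100% = no compound wells and 0% = no enzyme wells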
# MEASUREMENT PARAMETERS: IucA enzyme assay, absorbance (OD) readout; stronger effect = lower value;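 tested at 8 µM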
Entries and their remaining activity
Numbers only here, please. The scale is %.

Dear colleague, please send me the reported remaining activity for `N#C/C(=C\c1ccc(O)c(O)c1)C(N)=S` when you can.
89.1

Return the recorded remaining activity value; entry: `COc1ccc2[nH]cc(CCNC(C)=O)c2c1`
118

Determine its reported remaining activity: `CCCN1CCc2cc(O)cc3c2[C@H]1Cc1ccc(O)c(O)c1-3`
99.8

Return the recorded remaining activity value; entry: CN(C(=O)Cc1ccc(Cl)c(Cl)c1)C(CN1CCCC1)c1cccc(OCC(=O)O)c1 (stereo unspecified)
103

Fill in reported remaining activity for this entry: `O=c1[nH]c2cc(Cl)ccc2c(O)c1-c1cccc(Oc2ccccc2)c1`
120

Read off the recorded remaining activity for `CCCCCCCCCCCCCCCCCCOC[C@H](COP(=O)([O-])OCC[N+](C)(C)C)OC`
119

Note remaining activity for the compound shown: O=C1O/C(=C/Br)CCC1c1cccc2ccccc12 (stereo unspecified)
112

Report measured remaining activity; entry is `C[C@H]1OC[C@@H](C[N+](C)(C)C)O1`
81.5

Determine its reported remaining activity: `C=CCN1CC[C@]23c4c5ccc(O)c4O[C@H]2/C(=N/NC(=O)c2ccccc2)CC[C@@]3(O)[C@H]1C5`
116

Fill in remaining activity for record CCC1(O)CC2CN(CCc3c([nH]c4ccccc34)[C@@](C(=O)OC)(c3cc4c(cc3OC)N(C)C3[C@]45CCN4CC=C[C@@](CC)([C@@H](OC(C)=O)[C@]3(O)C(=O)OC)[C@H]45)C2)C1 (stereo partly specified)
102

Give me measured remaining activity, please, for this compound: `CCN1CCC[C@H]1CNC(=O)c1c(O)c(Cl)cc(Cl)c1OC`
98.9

Item `Nc1ccn([C@@H]2O[C@H](CO)[C@@H](O)[C@@H]2O)c(=O)n1` : provide remaining activity
119

Please report remaining activity for the following compound: `C=CCN1CCc2c(cc(O)c(O)c2Br)[C@@H](c2ccccc2)C1`
116

Return remaining activity for the following compound: CCCCCC(O)c1cccc(OCc2ccc3ccccc3n2)c1 (stereo unspecified)
98.9

Could you please provide reported remaining activity for `CC(=O)N[C@H](C(=O)O)C(C)(C)SN=O` ? Thanks!
117

Specify remaining activity for `CCCCCCCCCCCCCCCC(=O)NCCO` and stop.
118

Note down remaining activity recorded for COc1ccccc1N1CCN(CC(O)COc2cccc3ccccc23)CC1 (stereo unspecified)
96.1

Supply recorded remaining activity for `Cn1cnc2c1c(=O)[nH]c(=O)n2C` here.
97.1

For the compound `C#Cc1ccc2c(c1)C(=O)N(C)Cc1c(C(=O)OCCCc3nc(C(=O)O)c4n3-c3ccc(C#C)cc3C(=O)N(C)C4)ncn1-2` , give its measured remaining activity value.
97.1

Give recorded remaining activity. `C[N+](C)(C)CCOP(=O)(O)OP(=O)([O-])OC[C@H]1O[C@@H](n2ccc(N)nc2=O)[C@H](O)[C@@H]1O`
115

Annotate the compound `CCC(=O)N1CCN(C(=O)c2ccccc2)CC1` with its measured remaining activity.
122

Give the reported value of remaining activity for this record: `C[N+](C)(C)CCCCCCCCCC[N+](C)(C)C`
91.8

// fetch remaining activity given entry `COc1ccc2c(c[n+](C)c3c4cc5c(cc4ccc23)OCO5)c1OC`
110
